Data provenance: ChEMBL document CHEMBL4420068

Here, each record is paired with measured Ratio IC50 data.
Tested on: THP-1
procedure_text: Ratio of cytotoxic IC50 for human THP1 (+/+) cells expressing wild type SAMHD1 to cytotoxic IC50 for human THP1 cells with CRISP/CAS9 SAMHD1 knockout
Format: functional

[
  {
    "molecular_string": "Nc1ccn([C@@H]2O[C@H](CO)[C@@H](O)C2(F)F)c(=O)n1",
    "Ratio IC50": 1
  },
  {
    "molecular_string": "Nc1ncn([C@H]2C[C@H](O)[C@@H](CO)O2)c(=O)n1",
    "Ratio IC50": 9
  },
  {
    "molecular_string": "COc1cccc2c1C(=O)c1c(O)c3c(c(O)c1C2=O)C[C@@](O)(C(C)=O)C[C@@H]3O[C@H]1C[C@H](N)[C@H](O)[C@H](C)O1",
    "Ratio IC50": 1
  },
  {
    "molecular_string": "NC(=O)c1ncn([C@@H]2O[C@H](CO)[C@@H](O)[C@H]2O)n1",
    "Ratio IC50": 0.5
  },
  {
    "molecular_string": "Nc1nc(Cl)nc2c1ncn2[C@H]1C[C@H](O)[C@@H](CO)O1",
    "Ratio IC50": 1
  },
  {
    "molecular_string": "Nc1nc2[nH]cnc2c(=S)[nH]1",
    "Ratio IC50": 1
  }
]
